LC80 values by entry
- System: Nephotettix cincticeps
- EXPERIMENT_DESCRIPTION: Insecticidal activity against Nephotettix cincticeps (green rice leafhopper) infested in compound-pretreated rice seedling measured 6 days post-infestation
- Format: functional
MEASUREMENT_LABEL: LC80

1) CCOP(=O)(OCC)Oc1ccc([N+](=O)[O-])cc1 [PARAOXON] ... >100 ppm
2) CC12CC(N/C(=N/C#N)N1)c1ccc(F)cc1O2 (centres undefined) ... >100 ppm
3) CC(=O)N1/C(=N/C#N)NC2Cc3ccccc3C1C2 (centres undefined) ... <10 ppm
4) CCN1/C(=N/C#N)NC2(C)CC1c1ccccc1O2 (centres undefined) ... >100 ppm
5) N#C/N=C1\NC2Cc3ccccc3C(C2)N1 (centres undefined) ... <10 ppm
6) CCC12N/C(=N\C#N)NC(c3ccccc3O1)C2C (mixture of isomers) ... >100 ppm
7) Cc1ccc2c(c1)C1CC(C)(N/C(=N\C#N)N1)O2 (centres undefined) ... <100 ppm
8) CC12CC(c3ccccc3O1)N(C(=O)C(F)(F)F)/C(=N/C#N)N2 (centres undefined) ... >100 ppm
9) CC12CC(N/C(=N/C#N)N1)c1cc(OC(F)(F)F)ccc1O2 (centres undefined) ... >100 ppm
10) CCCC(=O)N1/C(=N/C#N)NC2(C)CC1c1ccccc1O2 (centres undefined) ... <100 ppm
11) CC12CC(N/C(=N/C#N)N1)c1cc(N)ccc1O2 (centres undefined) ... <10 ppm
12) CC12CC(N/C(=N/C#N)N1)c1ccccc1O2 (centres undefined) ... >100 ppm
13) CC12CC(N/C(=N/C#N)N1)c1ccc(Cl)cc1O2 (centres undefined) ... >100 ppm
14) CN1/C(=N/C#N)N(C)C2(C)CC1c1ccccc1O2 (centres undefined) ... >100 ppm
15) CC12CC(N/C(=N/C#N)N1)c1cc(Cl)cc(Cl)c1O2 (centres undefined) ... >100 ppm
16) C#CCN1/C(=N/C#N)NC2(C)CC1c1ccccc1O2 (centres undefined) ... <10 ppm
17) CC12CC(N/C(=N/C#N)N1)c1cc([N+](=O)[O-])ccc1O2 (centres undefined) ... <10 ppm
18) CC(=O)N1/C(=N/C#N)NC2(C)CC1c1ccc(F)cc1O2 (centres undefined) ... >100 ppm
19) COC(=O)N1/C(=N/C#N)NC2(C)CC1c1ccc(F)cc1O2 (centres undefined) ... <10 ppm
20) COc1ccc2c(c1OC)OC1(C)CC2N/C(=N/C#N)N1 (centres undefined) ... >100 ppm
21) CC12CC(N/C(=N/C#N)N1)c1cc(Br)cc(Br)c1O2 (centres undefined) ... >100 ppm
22) C[C@H]1[C@H]2N/C(=N/C#N)N[C@]1(C)Oc1ccccc12 (relative stereo) ... <1 ppm
23) COc1cccc2c1C1CC(C)(N/C(=N\C#N)N1)O2 (centres undefined) ... >100 ppm
24) CN1/C(=N/C#N)NC2(C)CC1c1ccccc1O2 (centres undefined) ... <100 ppm

----------
- Tested on: Nilaparvata lugens
- EXPERIMENT_DESCRIPTION: Insecticidal activity against Nilaparvata lugens (brown planthopper) infested in compound-pretreated rice seedling measured 6 days post-infestation
- Assay type: functional
LC80 values by entry
MEASUREMENT_LABEL: LC80

1) CCOP(=O)(OCC)Oc1ccc([N+](=O)[O-])cc1 ... <10 ppm
2) CC(C)C(=O)N1/C(=N/C#N)NC2(C)CC1c1ccccc1O2 (stereo not drawn) ... <10 ppm
3) CC(=O)N1/C(=N/C#N)NC2(C)CC1c1ccccc1O2 (stereo not drawn) ... <10 ppm
4) CC12CC(N/C(=N/C#N)N1)c1cc(N)ccc1O2 (stereo not drawn) ... >100 ppm
5) CC12CC(N/C(=N/C#N)N1)c1ccc(F)cc1O2 (stereo not drawn) ... <10 ppm
6) CC12CC(N/C(=N/C#N)N1)c1c(Cl)cc(Cl)cc1O2 (stereo not drawn) ... >100 ppm
7) CC12CC(N/C(=N/C#N)N1)c1cc(C(C)(C)C)cc(C(C)(C)C)c1O2 (stereo not drawn) ... >100 ppm
8) CC12CC(c3ccccc3O1)N(S(C)(=O)=O)/C(=N/C#N)N2 (stereo not drawn) ... >100 ppm
9) CC12CC(N/C(=N/C#N)N1)c1cc(OC(F)(F)F)ccc1O2 (stereo not drawn) ... >100 ppm
10) CCC12N/C(=N\C#N)NC(c3ccccc3O1)C2C (mixture of isomers) ... >100 ppm
11) CC12CC(c3ccccc3O1)N(Cc1ccccc1)/C(=N/C#N)N2 (stereo not drawn) ... >100 ppm
12) CN1/C(=N/C#N)NC2(C)CC1c1ccccc1O2 (stereo not drawn) ... <10 ppm
13) C[C@@H]1[C@H]2N/C(=N/C#N)N[C@]1(C)Cc1ccccc12 (relative stereo) ... <1 ppm
14) CC12CC(N/C(=N/C#N)N1)c1cc(Br)cc(Br)c1O2 (stereo not drawn) ... >100 ppm
15) CCC1C2N/C(=N/C#N)NC1(C)Oc1ccccc12 (stereo not drawn) ... >100 ppm
16) COc1ccc2c(c1OC)OC1(C)CC2N/C(=N/C#N)N1 (stereo not drawn) ... >100 ppm
17) N#C/N=C1\NC2Cc3ccccc3C(C2)N1 (stereo not drawn) ... <100 ppm
18) CC12CC(c3ccccc3O1)N(C(=O)C(F)(F)F)/C(=N/C#N)N2 (stereo not drawn) ... >100 ppm
19) C[C@@H]1[C@H]2N/C(=N/C#N)N[C@]1(C)Oc1ccccc12 (relative stereo) ... <1 ppm
20) CC12CC(c3ccccc3O1)N(C[Si](C)(C)C)/C(=N/C#N)N2 (stereo not drawn) ... <100 ppm
21) CC12CC(N/C(=N/C#N)N1)c1cc(Cl)ccc1O2 (stereo not drawn) ... >100 ppm
22) CC(=O)N1/C(=N\C#N)NC2CC1Cc1ccccc12 (stereo not drawn) ... >100 ppm
23) Cc1ccc2c(c1)C1CC(C)(N/C(=N\C#N)N1)O2 (stereo not drawn) ... >100 ppm

----------
- Test system: Nilaparvata lugens
- EXPERIMENT_DESCRIPTION: Insecticidal activity against Nilaparvata lugens (brown planthopper) infested in compound-pretreated rice seedling measured 6 days post-infestation
- Assay type: functional
LC80 values by entry
MEASUREMENT_LABEL: LC80

1) CC12CC(N/C(=N/C#N)N1)c1ccc(Cl)cc1O2 (stereo not drawn) ... <100 ppm
2) CC12CC(N/C(=N/C#N)N1)c1ccccc1O2 (stereo not drawn) ... <10 ppm
3) CCC(=O)N1/C(=N/C#N)NC2(C)CC1c1ccccc1O2 (stereo not drawn) ... <10 ppm

----------
- Test system: Nilaparvata lugens
- EXPERIMENT_DESCRIPTION: Insecticidal activity against Nilaparvata lugens (brown planthopper) infested in compound-pretreated rice seedling measured 6 days post-infestation
- Type: functional
MEASUREMENT_LABEL: LC80

1) C=CCN1/C(=N/C#N)NC2(C)CC1c1ccccc1O2 (stereo unspecified) ... <100 ppm
2) CC12CC(N/C(=N/C#N)N1)c1cc(Cl)cc(Cl)c1O2 (stereo unspecified) ... >100 ppm
3) C[C@@H]1[C@H]2Cc3ccccc3[C@@H]1N/C(=N/C#N)N2 (relative stereo) ... <100 ppm
4) C[C@H]1[C@H]2N/C(=N/C#N)N[C@]1(C)Oc1ccccc12 (relative stereo) ... <100 ppm
5) CC1C2N/C(=N\C#N)NC1c1ccccc1O2 (mixture of isomers) ... <100 ppm
6) CC12CC(c3ccccc3O1)N(Cc1ccccn1)/C(=N/C#N)N2 (stereo unspecified) ... <100 ppm
7) CCCC(=O)N1/C(=N/C#N)NC2(C)CC1c1ccccc1O2 (stereo unspecified) ... <10 ppm
8) COc1cccc2c1C1CC(C)(N/C(=N\C#N)N1)O2 (stereo unspecified) ... >100 ppm
9) COC(=O)N1/C(=N/C#N)NC2(C)CC1c1ccccc1O2 (stereo unspecified) ... <10 ppm
10) COC(=O)CN1/C(=N/C#N)NC2(C)CC1c1ccccc1O2 (stereo unspecified) ... <100 ppm
11) C#CCN1/C(=N/C#N)NC2(C)CC1c1ccccc1O2 (stereo unspecified) ... <10 ppm

----------
- Test system: Nilaparvata lugens
- EXPERIMENT_DESCRIPTION: Insecticidal activity against Nilaparvata lugens (brown planthopper) infested in compound-pretreated rice seedling measured 6 days post-infestation
- Format: functional
LC80 values by entry
MEASUREMENT_LABEL: LC80

1) CCC1C2N/C(=N\C#N)NC1c1ccccc1O2 (mixture of isomers) ... >100 ppm
2) Cc1cccc2c1OC1(C)CC2N/C(=N/C#N)N1 (stereo unspecified) ... >100 ppm
3) CC(=O)N1/C(=N/C#N)NC2(C)CC1c1ccc(F)cc1O2 (stereo unspecified) ... >100 ppm
4) CCC12CC(N/C(=N/C#N)N1)c1ccccc1O2 (stereo unspecified) ... <10 ppm
5) CC12CC(N/C(=N/C#N)N1)c1cc([N+](=O)[O-])ccc1O2 (stereo unspecified) ... >100 ppm
6) CCN1/C(=N/C#N)NC2(C)CC1c1ccccc1O2 (stereo unspecified) ... <10 ppm
7) N#C/N=C1/NC2CC(c3ccccc3)(N1)Oc1ccccc12 (stereo unspecified) ... >100 ppm
8) C[C@H]1[C@H]2Cc3ccccc3[C@@H]1N/C(=N/C#N)N2 (relative stereo) ... <10 ppm
9) CN1/C(=N/C#N)N(C)C2(C)CC1c1ccccc1O2 (stereo unspecified) ... <10 ppm
10) CC12CC(N/C(=N/C#N)N1)c1cccc(F)c1O2 (stereo unspecified) ... >100 ppm
11) N#C/N=C1\NC2CC(N1)c1ccccc1O2 (stereo unspecified) ... <100 ppm
